Target: Human immunodeficiency virus type 1 reverse transcriptase (Human immunodeficiency virus 1, UniProt Q72547, K103N)
Experiment: Inhibition of HIV1 reverse transcriptase K103N mutant expressed in Escherichia coli assessed as incorporation of [3H]dTTP into poly(rA)/oligo(dT) by scintillation counting
pIC50: −log10 of the molar value.
Parameter threshold = 6. Response is class 1 when pIC50 meets or exceeds it, else class 0.

# smiles.text, answer.label
records = [
    ("Cc1cc(C)cc(S(=O)(=O)c2c(C(=O)NCN3CCCCC3)[nH]c3ccc(Br)cc23)c1", "class 1"),
    ("Cc1cc(C)cc(S(=O)(=O)c2c(C(=O)NCc3ccccc3)[nH]c3ccc(Cl)cc23)c1", "class 0"),
    ("Cc1cc(C)cc(S(=O)(=O)c2c(C(=O)NCCn3cccc3)[nH]c3ccc(Cl)c(F)c23)c1", "class 1"),
    ("Cc1cc(C)cc(S(=O)(=O)c2c(C(=O)NCCc3ccccc3)[nH]c3ccc(Cl)cc23)c1", "class 0"),
    ("Cc1cc(C)cc(S(=O)(=O)c2c(C(=O)NCN3CCCCC3)[nH]c3ccc(Cl)cc23)c1", "class 1"),
    ("Cc1cc(C)cc(S(=O)(=O)c2c(C(=O)NCCc3ccccc3)[nH]c3ccc([N+](=O)[O-])cc23)c1", "class 0"),
]

###

Target: Human immunodeficiency virus type 1 reverse transcriptase (Human immunodeficiency virus 1, UniProt Q72547, L100I)
Assay: Inhibition of HIV1 reverse transcriptase L100I mutant expressed in Escherichia coli assessed as incorporation of [3H]dTTP into poly(rA)/oligo(dT) by scintillation counting
pIC50: −log10 of the molar value.
Parameter threshold = 7. Response is 1.0 when pIC50 meets or exceeds it, else 0.0.

# smiles.text, answer.label
data = [
    ("Cc1cc(C)cc(S(=O)(=O)c2c(C(=O)NCCn3cccc3)[nH]c3ccc([N+](=O)[O-])cc23)c1", 1.0),
    ("Cc1cc(C)cc(S(=O)(=O)c2c(C(=O)NCCc3ccccc3)[nH]c3ccc(Cl)cc23)c1", 1.0),
    ("Cc1cc(C)cc(S(=O)(=O)c2c(C(=O)NCCOc3ccccc3)[nH]c3ccc(Br)cc23)c1", 0.0),
    ("Cc1cc(C)cc(S(=O)(=O)c2c(C(=O)NCN3CCOCC3)[nH]c3ccc(Cl)c(F)c23)c1", 0.0),
    ("Cc1cc(C)cc(S(=O)(=O)c2c(C(=O)NCCOc3ccccc3)[nH]c3ccc([N+](=O)[O-])cc23)c1", 0.0),
    ("Cc1cc(C)cc(S(=O)(=O)c2c(C(=O)NCN3CCCC3)[nH]c3ccc([N+](=O)[O-])cc23)c1", 1.0),
    ("Cc1cc(C)cc(S(=O)(=O)c2c(C(=O)NCc3ccccc3)[nH]c3ccc([N+](=O)[O-])cc23)c1", 1.0),
    ("Cc1cc(C)cc(S(=O)(=O)c2c(C(=O)NCN3CCCC3)[nH]c3ccc(Br)cc23)c1", 1.0),
    ("Cc1cc(C)cc(S(=O)(=O)c2c(C(=O)NCCN3CCCC3)[nH]c3ccc(Cl)c(F)c23)c1", 0.0),
    ("Cc1cc(C)cc(S(=O)(=O)c2c(C(=O)NCCN3CCCC3)[nH]c3ccc([N+](=O)[O-])cc23)c1", 0.0),
    ("Cc1cc(C)cc(S(=O)(=O)c2c(C(=O)NCc3ccccc3)[nH]c3ccc(Br)cc23)c1", 0.0),
    ("Cc1cc(C)cc(S(=O)(=O)c2c(C(=O)NCc3ccccc3)[nH]c3ccc(Cl)c(F)c23)c1", 1.0),
    ("Cc1cc(C)cc(S(=O)(=O)c2c(C(=O)NCCn3cccc3)[nH]c3ccc(Cl)cc23)c1", 1.0),
    ("Cc1cc(C)cc(S(=O)(=O)c2c(C(=O)NCCN3CCCC3)[nH]c3ccc(Cl)cc23)c1", 0.0),
]

###

Target: Human immunodeficiency virus type 1 reverse transcriptase (Human immunodeficiency virus 1, UniProt Q72547, K103N)
Experiment: Inhibition of HIV1 reverse transcriptase K103N mutant expressed in Escherichia coli assessed as incorporation of [3H]dTTP into poly(rA)/oligo(dT) by scintillation counting
Reported IC50 values for the following molecules.

# smiles.text, unit, IC50
data = [
    ("Cc1cc(C)cc(S(=O)(=O)c2c(C(=O)NCCn3cccc3)[nH]c3ccc(Cl)cc23)c1", "nM", 85),
    ("Cc1cc(C)cc(S(=O)(=O)c2c(C(=O)NCCc3ccccc3)[nH]c3ccc(Br)cc23)c1", "nM", 1680),
    ("Cc1cc(C)cc(S(=O)(=O)c2c(C(=O)NCCn3cccc3)[nH]c3ccc([N+](=O)[O-])cc23)c1", "nM", 272),
    ("Cc1cc(C)cc(S(=O)(=O)c2c(C(=O)NCCN3CCCC3)[nH]c3ccc(Cl)cc23)c1", "nM", 660),
]

###

Reported CC50 values for the following compounds.
Assay: Cytotoxicity against human CEM cells by coulter counter analysis
Assay type: cell-based
Conditions: CEM (CCRF-CEM) cells

# smiles.text, CC50
measured = [
    ("Cc1cc(C)cc(S(=O)(=O)c2c(C(=O)NCN3CCCCC3)[nH]c3ccc([N+](=O)[O-])cc23)c1", "12 µM"),
    ("Cc1cc(C)cc(S(=O)(=O)c2c(C(=O)NCN3CCOCC3)[nH]c3ccc(Cl)cc23)c1", "11 µM"),
    ("Cc1cc(C)cc(S(=O)(=O)c2c(C(=O)NCCOc3ccccc3)[nH]c3ccc(Cl)c(F)c23)c1", "11 µM"),
    ("Cc1cc(C)cc(S(=O)(=O)c2c(C(=O)NCCN3CCCC3)[nH]c3ccc(Br)cc23)c1", "5.6 µM"),
    ("Cc1cc(C)cc(S(=O)(=O)c2c(C(=O)NCCn3cccc3)[nH]c3ccc(Br)cc23)c1", "146 µM"),
    ("Cc1cc(C)cc(S(=O)(=O)c2c(C(=O)NCCN3CCCC3)[nH]c3ccc(Cl)c(F)c23)c1", "6.4 µM"),
    ("Cc1cc(C)cc(S(=O)(=O)c2c(C(=O)NCCN3CCCC3)[nH]c3ccc(Cl)cc23)c1", "7.1 µM"),
    ("Cc1cc(C)cc(S(=O)(=O)c2c(C(=O)NCN3CCCC3)[nH]c3ccc(Cl)c(F)c23)c1", "9.3 µM"),
]

###

Reported Selectivity Index values for the following compounds.
Assay: Selectivity index, CC50 for human CEM cells to IC50 for HIV1 3B
Format: functional, CCRF-CEM

# smiles.text, Selectivity Index
records = [
    ("Cc1cc(C)cc(S(=O)(=O)c2c(C(=O)NCN3CCCCC3)[nH]c3ccc(Cl)c(F)c23)c1", 8205),
    ("Cc1ccnc2c1NC(=O)c1cccnc1N2C1CC1", ">520"),
    ("O=C1Nc2ccc(Cl)cc2[C@@](C#CC2CC2)(C(F)(F)F)O1", ">6667"),
    ("Cc1cc(C)cc(S(=O)(=O)c2c(C(=O)NCN3CCOCC3)[nH]c3ccc([N+](=O)[O-])cc23)c1", 7931),
    ("Cc1cc(C)cc(S(=O)(=O)c2c(C(=O)NCN3CCOCC3)[nH]c3ccc(Cl)c(F)c23)c1", 15200),
    ("Cc1cc(C)cc(S(=O)(=O)c2c(C(=O)NCCOc3ccccc3)[nH]c3ccc(Br)cc23)c1", ">17241"),
    ("Cc1cc(C)cc(S(=O)(=O)c2c(C(=O)NCN3CCCCC3)[nH]c3ccc(Br)cc23)c1", 2703),
    ("Cc1cc(C)cc(S(=O)(=O)c2c(C(=O)NCN3CCCC3)[nH]c3ccc(Cl)c(F)c23)c1", 2385),
    ("Cc1cc(C)cc(S(=O)(=O)c2c(C(=O)NCCn3cccc3)[nH]c3ccc(Cl)c(F)c23)c1", 1782),
    ("Cc1cc(C)cc(S(=O)(=O)c2c(C(=O)NCN3CCCCC3)[nH]c3ccc([N+](=O)[O-])cc23)c1", 3871),
    ("Cc1cc(C)cc(S(=O)(=O)c2c(C(=O)NCCn3cccc3)[nH]c3ccc(Cl)cc23)c1", 8308),
    ("Cc1cc(C)cc(S(=O)(=O)c2c(C(=O)NCCN3CCCC3)[nH]c3ccc(Cl)cc23)c1", 418),
    ("Cc1cc(C)cc(S(=O)(=O)c2c(C(=O)NCCOc3ccccc3)[nH]c3ccc(Cl)cc23)c1", 7962),
    ("Cc1cc(C)cc(S(=O)(=O)c2c(C(=O)NCN3CCCCC3)[nH]c3ccc(Cl)cc23)c1", 7615),
    ("Cc1cc(C)cc(S(=O)(=O)c2c(C(=O)NCCc3ccccc3)[nH]c3ccc(Cl)c(F)c23)c1", 1214),
    ("Cc1cc(C)cc(S(=O)(=O)c2c(C(=O)NCCN3CCOCC3)[nH]c3ccc(Cl)cc23)c1", 5682),
    ("Cc1cc(C)cc(S(=O)(=O)c2c(C(=O)NCCc3ccccc3)[nH]c3ccc([N+](=O)[O-])cc23)c1", ">72529"),
    ("Cc1cc(C)cc(S(=O)(=O)c2c(C(=O)NCN3CCOCC3)[nH]c3ccc(Cl)cc23)c1", 5789),
    ("Cc1cc(C)cc(S(=O)(=O)c2c(C(=O)NCCN3CCOCC3)[nH]c3ccc([N+](=O)[O-])cc23)c1", 5250),
    ("Cc1cc(C)cc(S(=O)(=O)c2c(C(=O)NCCN3CCCC3)[nH]c3ccc([N+](=O)[O-])cc23)c1", 1313),
    ("Cc1cc(C)cc(S(=O)(=O)c2c(C(=O)NCc3ccccc3)[nH]c3ccc(Cl)c(F)c23)c1", 2586),
    ("Cc1cc(C)cc(S(=O)(=O)c2c(C(=O)NCCN3CCOCC3)[nH]c3ccc(Br)cc23)c1", 2406),
    ("Cc1cc(C)cc(S(=O)(=O)c2c(C(=O)NCCN3CCCC3)[nH]c3ccc(Br)cc23)c1", 351),
    ("Cc1cc(C)cc(S(=O)(=O)c2c(C(=O)NCCN3CCCC3)[nH]c3ccc(Cl)c(F)c23)c1", 229),
    ("Cc1cc(C)cc(S(=O)(=O)c2c(C(=O)NCCN3CCOCC3)[nH]c3ccc(Cl)c(F)c23)c1", 846),
    ("Cc1cc(C)cc(S(=O)(=O)c2c(C(=O)NCCn3cccc3)[nH]c3ccc(Br)cc23)c1", 22813),
]
